Recorded Ki for the following compounds
# Target of assay: GST-tagged-Wee1 kinase (Homo sapiens, UniProt P30291)
# Construct: purchased Carnabio 05-177
# Sequence (P30291 whole entry): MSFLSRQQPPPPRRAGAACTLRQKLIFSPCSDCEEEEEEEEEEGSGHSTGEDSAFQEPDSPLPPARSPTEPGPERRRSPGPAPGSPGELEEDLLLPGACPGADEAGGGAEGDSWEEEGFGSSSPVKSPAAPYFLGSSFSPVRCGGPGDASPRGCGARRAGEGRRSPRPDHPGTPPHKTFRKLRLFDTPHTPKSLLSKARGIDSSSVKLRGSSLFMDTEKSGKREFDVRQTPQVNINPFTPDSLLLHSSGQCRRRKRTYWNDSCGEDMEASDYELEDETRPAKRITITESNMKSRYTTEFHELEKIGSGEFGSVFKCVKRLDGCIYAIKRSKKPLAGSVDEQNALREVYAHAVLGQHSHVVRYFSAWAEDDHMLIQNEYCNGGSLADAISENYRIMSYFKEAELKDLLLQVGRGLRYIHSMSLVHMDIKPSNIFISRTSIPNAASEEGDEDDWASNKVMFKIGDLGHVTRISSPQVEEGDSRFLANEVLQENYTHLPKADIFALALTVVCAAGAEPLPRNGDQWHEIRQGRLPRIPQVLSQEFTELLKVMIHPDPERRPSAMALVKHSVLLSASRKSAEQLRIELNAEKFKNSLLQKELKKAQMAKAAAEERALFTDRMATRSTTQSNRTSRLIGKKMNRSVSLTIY
# Test details: Wee1 time-resolved fluorescence equilibrium binding assay (displacement of Oregon Green-labeled ATP-competitive probe)
# Measurement parameters: TR-FRET probe displacement; 2 nM GST-Wee1, 300 nM probe, 1 hour incubation; read-out: Wee-1 binding (Ki nM)
Value type: Ki (nM)

CN1c2ccccc2-c2nc(Nc3ccc(CN4CCCC4)cc3)ncc2S1(=O)=O
11
C=CCN1c2cc(Br)ccc2-c2nc(Nc3ccc(N4CCN(C)CC4)cc3)ncc2S1(=O)=O
2
CCCN1c2cc(-c3ccc(O)cc3)ccc2-c2nc(Nc3ccc(N4CCN(C)CC4)cc3)ncc2S1(=O)=O
14
CCCN1c2cc(Br)ccc2-c2nc(Nc3ccc(N4CCN(C)CC4)cc3)ncc2S1(=O)=O
6
CCCN1c2cc(C(N)=O)ccc2-c2nc(Nc3ccc(N4CCN(C)CC4)cc3)ncc2S1(=O)=O
6
C=CCN1c2ccccc2-c2nc(Nc3ccc4c(c3)CNCC4)ncc2S1(=O)=O
1
C=CCN1c2ccccc2-c2nc(Nc3ccc(-c4nc5ccccc5[nH]4)cc3)ncc2S1(=O)=O
283
CCCN1c2cc(C(=O)OC)ccc2-c2nc(Nc3ccc(N4CCN(C)CC4)cc3)ncc2S1(=O)=O
6
